Origin of measurements: ChEMBL document CHEMBL4414615

Provide the reported MIC of each item.
System: Staphylococcus aureus
Test: Antibacterial activity against Staphylococcus aureus DSM 346 incubated for 24 hrs by broth microdilution method
Format: functional
Details: DSM 346, 24 h

Example entries begin here.
CN(C)[C@@H]1C(=O)C(C(N)=O)=C(O)[C@@]2(O)C(=O)C3=C(O)c4c(O)cccc4[C@@](C)(O)[C@H]3[C@H](O)[C@@H]12.Cl    2.1 µg/mL
O=C(O)/C=C/C[C@H]1[C@@H](O)C=CC12Oc1cccc3cccc(c13)O2    66.6 µg/mL
O=C(O)/C=C/C=C1\[C@@H](O)C[C@H](O)C12Oc1cccc3cccc(c13)O2    66.6 µg/mL

Provide reported MIC for each item, in the same order as listed.
1. O=C(O)/C=C/C=C1\C(=O)C=CC12Oc1cccc3cccc(c13)O2
2. O=C(O)/C=C/C=C1\[C@@H](O)C=CC12Oc1cccc3cccc(c13)O2

["4.2 µg/mL", "66.6 µg/mL"]

###

System: PC-3
Experiment: Cytotoxicity against human PC3 cells assessed as reduction in cell growth incubated for 5 days by MTT assay
Format: functional, cell-based
Details: Homo sapiens, PC-3, 120 h; read-out: IC50
Kindly state pIC50 for each of the entries shown.
Give bare numbers, as −log10 of the molar value.

O=C(O)/C=C/C=C1\C(=O)C=CC12Oc1cccc3cccc(c13)O2    6.05

Continue with the next molecule.
Note to self: pIC50 recorded for C/C(=C\c1csc(C)n1)[C@@H]1C[C@@H]2O[C@]2(C)CCC[C@H](C)[C@H](O)[C@@H](C)C(=O)C(C)(C)[C@@H](O)CC(=O)O1 [PATUPILONE] was 8.80

###

I'd be grateful if you could share measured LC50 for these entries.
Test system: Caenorhabditis elegans
Assay: Nematicidal activity against Caenorhabditis elegans incubated for 18 hrs
Assay type: functional
Settings: read-out: LD50 (the source's name)
Numbers only, in µg/mL.

Sample answers from the record:
O=C(O)/C=C/C[C@H]1[C@@H](O)C=CC12Oc1cccc3cccc(c13)O2    25
O=C(O)/C=C/C=C1\[C@@H](O)C=CC12Oc1cccc3cccc(c13)O2    50
O=C(O)/C=C/C=C1\C(=O)C=CC12Oc1cccc3cccc(c13)O2    50

Tested system Caenorhabditis elegans; LC50 recorded for `O=C(O)/C=C/C=C1\[C@@H](O)C[C@H](O)C12Oc1cccc3cccc(c13)O2` was 50

###

Please provide measured IC50 for the entries that follow.
System: SK-OV-3
Assay: Cytotoxicity against human SKOV3 cells assessed as reduction in cell growth incubated for 5 days by MTT assay
Format: functional, cell-based
Settings: Homo sapiens, SK-OV-3, 120 h; read-out: IC50
Numbers only, in nM.

C/C(=C\c1csc(C)n1)[C@@H]1C[C@@H]2O[C@]2(C)CCC[C@H](C)[C@H](O)[C@@H](C)C(=O)C(C)(C)[C@@H](O)CC(=O)O1    0.28

Please turn your attention to the following entry.
Just so you know, measured IC50 for `O=C(O)/C=C/C=C1\C(=O)C=CC12Oc1cccc3cccc(c13)O2` came out at 600

###

Test system: A-431
Assay: Cytotoxicity against human A431 cells assessed as reduction in cell growth incubated for 5 days by MTT assay
Assay type: functional, cell-based
Conditions: Homo sapiens, A-431, 120 h; read-out: IC50
Give measured IC50 for each item. Keep answers brief.
One number for each entry, in nM.

O=C(O)/C=C/C=C1\C(=O)C=CC12Oc1cccc3cccc(c13)O2    200

Now for a further compound.
Consider `C/C(=C\c1csc(C)n1)[C@@H]1C[C@@H]2O[C@]2(C)CCC[C@H](C)[C@H](O)[C@@H](C)C(=O)C(C)(C)[C@@H](O)CC(=O)O1` . Its measured IC50 is 0.079
